Test system: MOLT-4
Assay: NCI60 one-dose screen
Format: cell-based
Conditions: Homo sapiens; MOLT-4, 10 μM; read-out: Growth percent
Checkbox rule: activity at 10 µM lower than -40% = 1 (yes); activity at 10 µM not lower than -40% = 0 (no).

O=c1cc(-c2ccccc2)oc2cc(O)cc(O)c12 [compound 2, 5,7-dihydroxyflavone, reference compound] | 0 (no)
O=c1cc(-c2ccccc2)oc2cc(OCCCC[P+](c3ccc(F)cc3)(c3ccc(F)cc3)c3ccc(F)cc3)cc(O)c12 [3d] | 0 (no)
Cc1ccccc1[P+](CCCCOc1cc(O)c2c(=O)cc(-c3ccccc3)oc2c1)(c1ccccc1C)c1ccccc1C [3g] | 1 (yes)
Cc1ccc([P+](CCCCOc2cc(O)c3c(=O)cc(-c4ccccc4)oc3c2)(c2ccc(C)cc2)c2ccc(C)cc2)cc1 [3b] | 1 (yes)
COc1ccc([P+](CCCCOc2cc(O)c3c(=O)cc(-c4ccccc4)oc3c2)(c2ccc(OC)cc2)c2ccc(OC)cc2)cc1 [3c] | 1 (yes)

Confirm or reject: activity at 10 µM of COc1c(C)cc([P+](CCCCOc2cc(O)c3c(=O)cc(-c4ccccc4)oc3c2)(c2cc(C)c(OC)c(C)c2)c2cc(C)c(OC)c(C)c2)cc1C [3f] lies strictly below -40%
1 (yes)

activity at 10 µM under -40%? Item: O=c1cc(-c2ccccc2)oc2cc(OCCCC[P+](C3CCCCC3)(C3CCCCC3)C3CCCCC3)cc(O)c12 [3e]
1 (yes)

Input O=c1cc(-c2ccccc2)oc2cc(OCCCC[P+](c3ccccc3)(c3ccccc3)c3ccccn3)cc(O)c12 [3h] ; condition: activity at 10 µM strictly below -40%. Does it hold?
0 (no)

Please check: activity at 10 µM for O=c1cc(-c2ccccc2)oc2cc(OCCCC[P+](c3ccccc3)(c3ccccc3)c3ccccc3)cc(O)c12 [3a] , strictly under -40% or not?
1 (yes)
